- Tested on: SF-268 CNS
- protocol_summary: NCI tumour cell line growth inhibition, 48 h
property: TGI

Sample records with TGI:
compound | TGI
Fc1ccccc1-c1cc(=S)c2cc3c(cc2[nH]1)OCO3 | > 100 µM
Oc1cccc2cccnc12 | > 100 µM
C=C[C@@H]1CCC/C=C/[C@@H]2C[C@H](O)C[C@H]2[C@H](O)/C=C/C(=O)O1 | > 100 µM
CN1/C(=C\N=O)C(C)(C)N(O)C1(C)C | > 100 µM
Cn1cnc(SC2=CC(=O)C=C3S[C@H]4C[C@@]23c2c(c(O)c3c5c2=NCCC=5C=N3)N4)c1CC(N)C(=O)O (some centres not stated) | 26.1 µM

# TGI of CCCCCCCC(=O)Nc1nc2[nH]c(CN3CCN(Cc4cccc(I)c4)CC3)c(CN3CCN(Cc4cccc(I)c4)CC3)c2c(=O)[nH]1 = 1.65 µM

# TGI of COC(=O)c1ccc(Oc2nc3ccc(C(F)(F)F)cc3nc2-c2ccccc2)cc1 = > 100 µM

# TGI of CCOC(=O)c1ccc(NCc2ccc3nc(OC)c(OC)nc3c2)cc1 = > 100 µM

====

- System: PC-3 prostate
- protocol_summary: NCI tumour cell line growth inhibition, 48 h
# Lookup of reported GI50 keyed by entry

Sample records with GI50:
structure_notation | GI50
C[C@]12CC[C@@H]3c4ccc(O)cc4CC[C@H]3[C@@H]1CC(Cc1ccccc1)(Cc1ccccc1)C2=O | 4.11 µM
COc1ccc(OC)c(-c2cc(-c3ccc(Cl)cc3)nn2-c2ccccc2)c1 | 24.2 µM
CC[C@H](C)[C@H](NC(=O)c1ncccn1)C(=O)N(C)[C@H](C[C@@H](OC(C)=O)c1nc(C(=O)N[C@@H](Cc2ccccc2)C[C@H](C)C(=O)OC)cs1)C(C)C | 1.46 µM

Consider now this further compound.
# GI50 of COc1ccc(-c2oc3ncnc(N)c3c2-c2ccc(NC(=O)Nc3cc(C(F)(F)F)ccc3F)cc2)cc1 = 1.94 µM

====

- Test system: TK-10 renal
- protocol_summary: NCI tumour cell line growth inhibition, 48 h
property: TGI (µM)
Write it as a number; the unit µM goes unstated.

molecule | property | numeric_value
CC1=NC(C)=C(/C(C)=N/NC(=O)c2ccccc2O)C(C)/C1=C(/C)NNC(=O)c1ccccc1O (stereo unspecified) | TGI | 98.8
Cc1cc(C)c([I+]c2c(C)cc(C)cc2C)c(C)c1 | TGI | 2.06
CSc1ccc(Cc2cc(C(C)(C)C)cc(C(C)(C)C)c2O)cc1 | TGI | 25.7
O=C(N/C(=C\c1cccc([N+](=O)[O-])c1)c1nc2c3c(ccc2[nH]1)C(=O)c1ccccc1C3=O)c1ccccc1 | TGI | 82.2
COc1ccc(C2=NN(C(C)=O)c3nc4ccccc4nc3O2)cc1 | TGI | 52.1

# TGI of Cc1ccc(C(=O)C2C=C(c3ccc(C)cc3)SC3C=CCC32)cc1 (stereo unspecified) = 53.3

# TGI of O=c1oc2ccc(F)cc2c(=O)n1-c1ccc(I)cc1F = 17.5

====

- Test system: BT-549 breast
- protocol_summary: NCI tumour cell line growth inhibition, 48 h
# Lookup of reported TGI keyed by entry

Sample records with TGI:
compound | TGI
O=C1CC=C2C3CC4N(CCC45c4ccccc4N1C25)C/C3=C\CO (stereo not drawn) | > 100 µM
O=P(O)(O)c1ccc2c(c1)OCCOCCOCCOCCO2 | > 100 µM

# TGI of CC(C)(C)n1[nH]c(=O)n(C(C)(C)C)c1=O = > 100 µM
